Assay: qHTS of pediatric cancer cell lines to identify multiple opportunities for drug repurposing: Primary screen for TC32 cells (AID 1347089); also: nearly all actives have a fitted effect of over 60% in size
Conditions: TC32 Ewing sarcoma viability, CellTiter-Glo luminescence, 48 h; series mostly up to 45.8 µM
Results filed as inconclusive are left out. The source made the active and inactive calls. Calls follow the shape of the dose curve; as a rule, active = well fitted cell-killing curve with a large enough effect; inconclusive = small, poorly fitted or top-dose-only effect; inactive = flat fitted curve, though single readings scatter.
Classes used: T (active), F (inactive)

CCC(CC)(CC(=O)Nc1cccc(/C=C/c2nc(C3CCC3)cs2)c1)C(=O)O    F
O=C(O)P(=O)(O)O    F
C=C[C@H]1CN2CC[C@H]1C[C@@H]2[C@@H](O)c1ccnc2ccc(OC)cc12    F
Oc1ccccc1C=NCc1ccccc1    F
CC(C)Cc1ccc(CC(=O)O)cc1    F
CCCCCCCCCCCCCC(=O)OC(C)C    F
COc1ccccc1N1CCN(CCCCNC(=O)c2ccc(-c3ccc(C(C)=O)cc3)cc2)CC1    F
C#C[C@]1(O)CC[C@H]2[C@@H]3CCc4cc(OC)ccc4[C@H]3CC[C@@]21C    F
C=C[C@@]1(C)CC(=O)[C@]2(O)[C@@]3(C)[C@@H](O)CCC(C)(C)[C@@H]3[C@H](O)[C@H](OC(C)=O)[C@@]2(C)O1    F
NCCNc1cccc2ccccc12    F
CN(C)CCOC(c1ccc(Cl)cc1)c1ccccn1 (centres undefined)    F
C#C[C@]1(O)CC[C@H]2[C@@H]3[C@H](C)CC4=C(CCC(=O)C4)[C@H]3CC[C@@]21C    F
CCc1ccc(C(=O)C(C)CN2CCCCC2)cc1 (centres undefined)    F
CC1(C)OC[C@@H]2O[C@@]3(C(=O)O)OC(C)(C)O[C@H]3[C@@H]2O1    F
CC(C)CCCC(C)N (centres undefined)    F
CCOc1ccc(NC(C)=O)cc1    F
CC(CNC1CCCCC1)OC(=O)c1ccccc1 (centres undefined)    F
CCOC(=O)C(C#N)=C(c1ccccc1)c1ccccc1    F
CC(C)[N+](C)(C)CC(O)COc1cccc2ccccc12 (centres undefined)    F
CCN(CC)CCNC(=O)COc1ccc(OC)cc1    F
O=C(O)C1(C(=O)O)CCC1.[NH2-].[NH2-].[Pt+2]    F
NCCNC(=O)c1ccc(Cl)cn1    F
Cc1nc(-c2ccc(Cl)cc2)oc1COC(C)(C)C(=O)O    F
CNCCCCOc1ccccc1Cc1ccccc1    F
CC1=C(C(=O)O)N2C(=O)[C@@H](NC(=O)[C@H](N)c3ccccc3)[C@H]2SC1    F
Cc1c[nH]c2ccccc12    F
FC1(F)C(F)(F)C(F)(F)C2(F)C(F)(F)C(F)(F)C(F)(F)C(F)(F)C2(F)C1(F)F (centres undefined)    F
COc1ccc(/C=N/NC(=O)c2ccncc2)cc1OC    F
CC(C)(C)NC[C@H](O)COc1cccc2c1CCCC2=O    F
Oc1c(Cl)cc(Cl)c(Cl)c1Cc1c(O)c(Cl)cc(Cl)c1Cl    T
CC(=O)O[C@H]1C[C@@H]2CC[C@@H]3[C@H](CC[C@@]4(C)[C@H]3C[C@H]([N+]3(C)CCCCC3)[C@@H]4OC(C)=O)[C@@]2(C)C[C@@H]1N1CCCCC1    F
CN1CCN(C2=Nc3ccccc3Sc3ccc(Cl)cc32)CC1    F
COc1ccc(C(=O)c2ccccc2O)c(O)c1    F
Cc1ccc(S(=O)(=O)NC(=O)NC2CCCC2)cc1    F
